Below is a list of entries, each paired with its recorded IC50 value.
System: HTT
PROCEDURE SUMMARY: Gene panel canonical junction qPCR assay, HTT CJ mRNA (Table 7)
Assay type: cell-based, human
CONDITIONS: Homo sapiens, read-out: HTT CJ mRNA decrease IC50

These recorded examples may help you get a feel for the data.
COMPOUND | QUANTITY MEASURED | READOUT VALUE
CN(c1ccc2c(n1)OCc1cc(-c3cn[nH]c3)ccc1-2)C1CC2CC(F)(F)C(C1)N2 (stereo not drawn) | IC50 | 0.1 to 1 µM
Cc1cc(-c2ccc3c(c2)COc2nc(N4CC[C@H](NC(C)(C)C)C4)ccc2-3)cnn1 (single isomer, unassigned) | IC50 | > 10 µM
CN(c1ccc2c(n1)OCCc1cc(-c3cn[nH]c3)ccc1-2)[C@@H]1C[C@H]2CC[C@@H](C1)N2 | IC50 | 1 to 10 µM
CN(c1ccc2c(n1)CCOc1cc(-n3cccn3)ccc1-2)C1CC(C)(C)NC(C)(C)C1 | IC50 | > 10 µM

Query COc1cc(-c2ccc3c(c2)COc2nc(N4CC[C@@H](N(C)C(C)(C)C)C4)ccc2-3)cnn1 on HTT; IC50 returned: < 0.1 µM

Query COc1cc(-c2ccc3c(c2)COc2nc(N4CCC(N(C)C5CC5)C4)ccc2-3)cnn1 (stereo not drawn) on HTT; IC50 returned: 1 to 10 µM

Query COc1cc(-c2ccc3c(c2)COc2nc(N4CCC(NC(C)(C)C(C)C)C4)ccc2-3)cnn1 (stereo not drawn) on HTT; IC50 returned: < 0.1 µM

Query CCN(c1ccc2c(n1)OCc1cc(-n3cccn3)ccc1-2)[C@@H]1C[C@H]2CCC[C@@H](C1)N2 on HTT; IC50 returned: 0.1 to 1 µM

Query c1cnn(-c2ccc3c(c2)COc2nc(O[C@@H]4C[C@H]5CCC[C@@H](C4)N5)ccc2-3)c1 on HTT; IC50 returned: 0.1 to 1 µM

Query CN(c1ccc2c(n1)OCc1cc(-n3cccn3)ccc1-2)[C@H]1[C@@H]2CNC[C@@H]21 on HTT; IC50 returned: > 10 µM

Query CCN(c1ccc2c(n1)OCc1cc(-n3cccn3)ccc1-2)C1CCNCC1 on HTT; IC50 returned: > 10 µM

Query CN(c1ccc2c(n1)OCc1cc(-n3cccn3)ccc1-2)[C@@H]1C[C@H]2CCC[C@@H](C1)N2 on HTT; IC50 returned: < 0.1 µM

Query CCC(C)(C)NC1CCN(c2ccc3c(n2)OCc2cc(-c4cnnc(OC)c4)ccc2-3)C1 (stereo not drawn) on HTT; IC50 returned: < 0.1 µM

Query c1cnn(-c2ccc3c(c2)COc2nc(N4C[C@H]5CNC[C@H]5C4)ccc2-3)c1 on HTT; IC50 returned: > 10 µM

Query [2H]C([2H])([2H])N(c1ccc2c(n1)OCc1cc(-n3cccn3)ccc1-2)C1CCNCC1 on HTT; IC50 returned: 1 to 10 µM

----------
Below is a list of entries, each paired with its recorded IC50 value.
Tested on: HTT
PROCEDURE SUMMARY: Gene panel canonical junction qPCR assay, HTT CJ mRNA (Table 7)
Format: cell-based, human
CONDITIONS: Homo sapiens, read-out: HTT CJ mRNA decrease IC50

These recorded examples may help you get a feel for the data.
SMILES REPR | TGT | IC50
[2H]C([2H])([2H])N(c1ccc2c(n1)OCc1cc(-n3cccn3)ccc1-2)C1CC(C)(C)NC(C)(C)C1 | HTT | 1 to 10 µM
c1cnn(-c2ccc3c(c2)COc2nc(N4CC5(CCNCC5)C4)ccc2-3)c1 | HTT | > 10 µM
C[C@H]1C[C@H](N(C)c2ccc3c(c2)OCc2cc(-c4cn[nH]c4)ccc2-3)CCN1 | HTT | > 10 µM

// below: IC50 requested for another compound
Memo: CC1(C)CC(N(c2ccc3c(n2)OCc2cc(-n4cccn4)ccc2-3)C2CC2)CC(C)(C)N1 , reported IC50: 1 to 10 µM
